# experiment.notes: Chemical stability of the compound in buffer assessed as compound remaining at pH 2 after 2 hrs by HPLC analysis
# Format: physicochemical
# protocol.conditions: read-out: Stability
measured.metric: remaining at 2 h (%)
Supply the numeric figure in %, leaving out any unit text.

State its remaining at 2 h for this compound: CC(C)[C@]12O[C@H]1[C@@H]1O[C@]13[C@]1(O[C@H]1C[C@H]1C4=C(CC[C@@]13C)C(=O)OC4)[C@@H]2OCOP(=O)([O-])[O-].[Na+].[Na+] [MINNELIDE]
97
